ASSAY_NOTES: Long-term/accelerated stability
Assay type: physicochemical
CONDITION_DETAILS: 25° C./60% RH, 2 months
MEASURE_NAME: Purity % 2 months

Answered cases to consult:
MOLECULE	READING
CCc1c(F)ccc2cc(O)cc(-c3nc4c5c(nc(OC[C@@]67CCCN6C[C@H](F)C7)nc5c3F)N3C[C@H]5CC[C@H](N5)[C@H]3CO4)c12 [Crystal form K]	99.8%
CCc1c(F)ccc2cc(O)cc(-c3nc4c5c(nc(OC[C@@]67CCCN6C[C@H](F)C7)nc5c3F)N3C[C@H]5CC[C@H](N5)[C@H]3CO4)c12 [Crystal form I]	99.6%
CCc1c(F)ccc2cc(O)cc(-c3nc4c5c(nc(OC[C@@]67CCCN6C[C@H](F)C7)nc5c3F)N3C[C@H]5CC[C@H](N5)[C@H]3CO4)c12 [Crystal form C]	99.6%

Next item in the queue.
Requested read-out: Purity % 2 months. Entry: CCc1c(F)ccc2cc(O)cc(-c3nc4c5c(nc(OC[C@@]67CCCN6C[C@H](F)C7)nc5c3F)N3C[C@H]5CC[C@H](N5)[C@H]3CO4)c12 [Crystal form J] 99.6%
